- Test system: Saccharomyces cerevisiae;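 further: PSI is a weighted mean of sequencing reads over stability bins, variants kept only with over 10 reads, mCherry proximal and sfGFP distal, peptide attached via GGGS linker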
- PROCEDURE_TEXT: protein stability index of tFT-peptide fusion (C-terminal peptide) (PSI (0-1 scale)); higher = more stable (slower turnover)
- CONDITIONS: genetic background: cdc53-1; temperature: 37 C
protein stability index listing for selected sequences.
Output: the number by itself.

Worked cases, protein stability index given:
INSERT INTO measurements (seq, system_name, experimental_readout, test_result) VALUES
  ('VLFSVWFFLVLV', 'Saccharomyces cerevisiae', 'protein stability index', 0.0354),
  ('CSPSCNIVRLVS', 'Saccharomyces cerevisiae', 'protein stability index', 0.723),
  ('LFRRMWVEIFYV', 'Saccharomyces cerevisiae', 'protein stability index', 0.541),
  ('FFGVLFRVSLFF', 'Saccharomyces cerevisiae', 'protein stability index', 0.22);

// query protein stability index value for entry "VFCFCRFHFFCA"
0.649

// lookup protein stability index for "IYLLLFFFSFSA"
0.449

Requested read-out: protein stability index. Entry: "SPGGALVFFVLV"
0.6

Give its protein stability index value. Item: "ASVSVWCVSVVV"
0.166

Any idea what protein stability index was measured for "GKHILLISLNIT" ?
0.395

// query protein stability index value for entry "LLCLAVVLWFVV"
0.338

Item "LFFLPPCYWFLL" has what recorded protein stability index?
0.773

Return reported protein stability index; argument: "RLVVSRNFYRLC"
0.723

Query: protein stability index; subject: "YFLFRYIVITVF"
0.0672

For "GRVFSSFFLYIS" , what is its reported protein stability index?
0.0556

Query: protein stability index; subject: "SRVSEFVIPLGR"
0.739

Which protein stability index value belongs to "KYCPCIPLLIAL" ?
0.381

GET /values?readout=protein stability index&item= "FGFFDIKLPVVA"
0.51

Could you tell me which protein stability index is on file for "FPLGAQTWLCLS" ?
0.714

Find the recorded protein stability index belonging to "PPLLLFLSLAFL" and report it.
0.407

// returns reported protein stability index for input "CHSICLVILEFI"
0.338
